This listing pairs compounds with measured IC50.
Target: human recombinant AT1 receptor (Homo sapiens, UniProt P30556)
Construct: purchased Eurofins ITEM24
Sequence (P30556 whole entry): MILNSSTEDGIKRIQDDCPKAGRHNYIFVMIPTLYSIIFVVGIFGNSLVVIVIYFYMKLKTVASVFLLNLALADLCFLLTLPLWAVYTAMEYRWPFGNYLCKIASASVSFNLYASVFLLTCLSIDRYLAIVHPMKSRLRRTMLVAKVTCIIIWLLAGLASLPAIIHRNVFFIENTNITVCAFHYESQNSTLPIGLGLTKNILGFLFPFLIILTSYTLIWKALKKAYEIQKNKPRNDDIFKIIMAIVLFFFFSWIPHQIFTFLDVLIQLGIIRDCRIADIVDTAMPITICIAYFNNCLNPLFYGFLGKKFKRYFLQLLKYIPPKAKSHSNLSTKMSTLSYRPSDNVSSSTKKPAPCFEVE
Assay: Binding to AT1 receptor, radiometric scintillation assay (Eurofins)
Conditions: ligand 125I(sar1,Ile8)-AT-II, tested at 1 and 10 μM

Sample records with IC50:
Request: I'd like to know its IC50. The compound in question is `CCCCNC(=O)NS(=O)(=O)c1sc(CC(C)C)cc1-c1ccc(Cn2ccnc2C)cc1`
Result: > 10 µM

Request: Further, for `Cc1nccn1Cc1ccc(-c2cc(CC(C)C)sc2S(=O)(=O)NC(=O)NCCCC(F)(F)F)cc1` ?
Result: > 10 µM

Switching to the query record.
Request: I'd like to know its IC50. The compound in question is `Cc1nccn1Cc1ccc(-c2cc(CC(C)C)sc2S(=O)(=O)NC(=O)NCc2ccccn2)cc1`
Result: > 10 µM

* * *

Target: human recombinant AT2 receptor (Homo sapiens, UniProt P50052)
Sequence (P50052 whole entry): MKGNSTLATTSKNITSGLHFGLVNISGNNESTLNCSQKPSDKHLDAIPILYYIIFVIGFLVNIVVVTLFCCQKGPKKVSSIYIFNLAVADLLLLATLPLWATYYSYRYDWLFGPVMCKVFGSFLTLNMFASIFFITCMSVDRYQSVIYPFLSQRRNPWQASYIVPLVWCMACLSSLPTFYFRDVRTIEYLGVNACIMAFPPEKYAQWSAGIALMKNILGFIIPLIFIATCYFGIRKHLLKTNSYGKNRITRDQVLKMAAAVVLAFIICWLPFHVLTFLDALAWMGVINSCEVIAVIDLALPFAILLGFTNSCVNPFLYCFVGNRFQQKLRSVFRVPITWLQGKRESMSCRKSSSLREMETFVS
Experiment: Binding to AT2 receptor, radiometric scintillation assay (Eurofins)
Settings: ligand 125I CGP 42112A, tested at 1, 10, 100 and 1000 nM
This listing pairs compounds with measured pIC50.
Bear in mind: pIC50 is minus log10 of a mol/L concentration; give just that figure.

Request: I'd like to know its pIC50. The compound in question is `Cc1nccn1Cc1ccc(-c2cc(CC(C)C)sc2S(=O)(=O)NC(=O)NCCCC(F)(F)F)cc1`
Result: 7.83

Request: Further, for `Cc1nccn1Cc1ccc(-c2cc(CC(C)C)sc2S(=O)(=O)NC(=O)N(C)Cc2ccccn2)cc1F` ?
Result: 8.02

Request: Further, for `Cc1nccn1Cc1ccc(-c2cc(CC(C)C)sc2S(=O)(=O)NC(=O)NCc2cc(Cl)ccn2)cc1F.O=C(O)C(F)(F)F` ?
Result: 7.78

Request: Further, for `Cc1nccn1Cc1ccc(-c2cc(CC(C)C)sc2S(=O)(=O)NC(=O)NCCc2c[nH]cn2)cc1F` ?
Result: 8.13

More entries:
Request: I'd like to know its pIC50. The compound in question is `CCc1nccn1Cc1ccc(-c2cc(CC(C)C)sc2S(=O)(=O)NC(=O)NCCOC)cc1`
Result: 7.82

* * *

Molecular target: CYP2C9 (Homo sapiens)
Sequence (P11712 whole entry): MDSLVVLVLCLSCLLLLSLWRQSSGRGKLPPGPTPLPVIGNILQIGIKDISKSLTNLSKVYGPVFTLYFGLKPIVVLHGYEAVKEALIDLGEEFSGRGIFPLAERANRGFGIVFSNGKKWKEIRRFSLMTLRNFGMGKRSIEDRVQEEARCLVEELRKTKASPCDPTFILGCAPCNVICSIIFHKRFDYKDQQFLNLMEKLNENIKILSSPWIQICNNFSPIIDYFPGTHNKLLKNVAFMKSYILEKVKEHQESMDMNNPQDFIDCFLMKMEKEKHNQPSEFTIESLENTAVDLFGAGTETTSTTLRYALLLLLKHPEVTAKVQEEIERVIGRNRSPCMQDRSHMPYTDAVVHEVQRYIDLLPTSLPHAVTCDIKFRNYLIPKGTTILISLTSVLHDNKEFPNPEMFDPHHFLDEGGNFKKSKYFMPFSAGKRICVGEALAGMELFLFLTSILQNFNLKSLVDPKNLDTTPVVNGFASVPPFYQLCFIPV
Assay: CYP inhibition in human liver microsomes, CYP2C9
Assay type: in vitro ADME
Set-up: incubated with human liver microsomes; tissue Eurofins ITEMG232; host or cells: human liver microsomes
Conditions: probe diclofenac, substrate diclofenac, read-out: CYP2C9 Inh %
recordedEndpoint: inhibition at 10 µM
Please format your answer as a value with the unit trailing.

Sample records with inhibition at 10 µM:
Request: I'd like to know its inhibition at 10 µM. The compound in question is `Cc1nccn1Cc1ccc(-c2cc(CC(C)C)sc2S(=O)(=O)NC(=O)NCc2ccccc2)cc1`
Result: 49.7%

Request: Further, for `Cc1nccn1Cc1ccc(-c2cc(CC(C)C)sc2S(=O)(=O)NC(=O)NCc2ccccn2)cc1` ?
Result: 30.4%

Request: Further, for `Cc1nccn1Cc1ccc(-c2cc(CC(C)C)sc2S(=O)(=O)NC(=O)NCc2nccn2C)cc1F` ?
Result: 30%

Request: Further, for `CCc1nccn1Cc1ccc(-c2cc(CC(C)C)sc2S(=O)(=O)NC(=O)NCc2ccc(F)cc2)cc1F.O=C(O)C(F)(F)F` ?
Result: 49%

Request: Further, for `CCc1nccn1Cc1ccc(-c2cc(CC(C)C)sc2S(=O)(=O)NC(=O)NCc2ccccc2)cc1` ?
Result: 51.4%

Request: Further, for Cc1nccn1Cc1ccc(-c2cc(CC(C)C)sc2S(=O)(=O)NC(=O)NC(C)c2ccccn2)cc1F (stereo not shown) ?
Result: 50%

Switching to the query record.
Request: I'd like to know its inhibition at 10 µM. The compound in question is `Cc1cn(Cc2ccc(-c3cc(CC(C)C)sc3S(=O)(=O)NC(=O)NCc3ccccc3)cc2)c(C)n1`
Result: 50%
